# assayed_target: Rho (transcription termination factor) (Escherichia coli, UniProt P0AG30 1-419)
# assay_info: fluorescence anisotropy; 5 mM Mg2+; no Rof; PBS binding; Anisotropy: 20 mM Na-HEPES pH 7.5, 150 mM KCl, 5% glycerol, 5 mM MgCl2, 0.5 mM TCEP; 5 µM FAM-dC15 or 2 µM FAM-rU12; temperature not stated
# settings: protein: recombinant; chain copies: 6; label: 5'-FAM; single strand
endpoint_label: Kd (nM)
Reply with just the number (in nM).

[Q] State its Kd for this binder: CCCCCCCCCCCCCCC (ssDNA) [dC15]
[A] 1000

These data points were gathered from paper PMC11018626.
